# target.desc: human TRPC6 (Homo sapiens)
# experimental.details: TRPC6 calcium flux assay (FLIPR, OAG-stimulated calcium influx)
# test.settings: HEK293 cells stably transfected with human TRPC6, read-out: hTRPC6 Potency
result.type: IC50

C[C@@H](c1cccc(Cl)c1)n1c(N2CC[C@@H](F)[C@H](N)C2)nc2cc(F)c(F)cc21 :: 1370 nM
N#Cc1ccc(Cn2c(N3CCC[C@H](N)C3)nc3ccc(C#N)cc32)nc1 :: 6.47 nM
N#Cc1ccc(Cn2c(N3CCC(F)(F)[C@H](N)C3)nc3cc(C#N)ccc32)nc1 :: 13.5 nM

--- query ---
I would be grateful if you could share the reported IC50 for `CS(=O)(=O)c1ccc(Cn2c(N3CC[C@@H](F)[C@H](N)C3)nc3c(F)cc(F)cc32)nc1` .
11.9 nM

----------
# target.desc: human TRPC6 (Homo sapiens)
# experimental.details: TRPC6 calcium flux assay (FLIPR, OAG-stimulated calcium influx)
# test.settings: HEK293 cells stably transfected with human TRPC6, read-out: hTRPC6 Potency
Collected IC50 values appear next to each entry.

Worked set:
C[C@@H](c1cc(Cl)ccc1Cl)n1c(N2CC[C@@H](F)[C@H](N)C2)nc2cc(F)c(F)cc21 [Example 329] :: > 3.75 µM
N#Cc1ccc(Cn2c(N3CCC4(CNC4)C3)nc3ccccc32)nc1 [Example 97] :: > 3.75 µM
N[C@@H]1CN(c2nc3cc(F)c(F)cc3n2CC(=O)N2CCC(C(=O)N3CCCCCC3)CC2)CC[C@H]1F [Example 537] :: > 1.75 µM

Now take the following molecule into account.
Need IC50 of C[C@H](c1ccc(C#N)cn1)n1c(N2CC[C@H]3OCCN[C@@H]3C2)nc2c(F)cc(F)cc21 [Example 267] , thanks.
> 50 µM

----------
# target.desc: human TRPC6 (Homo sapiens, UniProt Q9Y210)
# Sequence (Q9Y210 whole entry): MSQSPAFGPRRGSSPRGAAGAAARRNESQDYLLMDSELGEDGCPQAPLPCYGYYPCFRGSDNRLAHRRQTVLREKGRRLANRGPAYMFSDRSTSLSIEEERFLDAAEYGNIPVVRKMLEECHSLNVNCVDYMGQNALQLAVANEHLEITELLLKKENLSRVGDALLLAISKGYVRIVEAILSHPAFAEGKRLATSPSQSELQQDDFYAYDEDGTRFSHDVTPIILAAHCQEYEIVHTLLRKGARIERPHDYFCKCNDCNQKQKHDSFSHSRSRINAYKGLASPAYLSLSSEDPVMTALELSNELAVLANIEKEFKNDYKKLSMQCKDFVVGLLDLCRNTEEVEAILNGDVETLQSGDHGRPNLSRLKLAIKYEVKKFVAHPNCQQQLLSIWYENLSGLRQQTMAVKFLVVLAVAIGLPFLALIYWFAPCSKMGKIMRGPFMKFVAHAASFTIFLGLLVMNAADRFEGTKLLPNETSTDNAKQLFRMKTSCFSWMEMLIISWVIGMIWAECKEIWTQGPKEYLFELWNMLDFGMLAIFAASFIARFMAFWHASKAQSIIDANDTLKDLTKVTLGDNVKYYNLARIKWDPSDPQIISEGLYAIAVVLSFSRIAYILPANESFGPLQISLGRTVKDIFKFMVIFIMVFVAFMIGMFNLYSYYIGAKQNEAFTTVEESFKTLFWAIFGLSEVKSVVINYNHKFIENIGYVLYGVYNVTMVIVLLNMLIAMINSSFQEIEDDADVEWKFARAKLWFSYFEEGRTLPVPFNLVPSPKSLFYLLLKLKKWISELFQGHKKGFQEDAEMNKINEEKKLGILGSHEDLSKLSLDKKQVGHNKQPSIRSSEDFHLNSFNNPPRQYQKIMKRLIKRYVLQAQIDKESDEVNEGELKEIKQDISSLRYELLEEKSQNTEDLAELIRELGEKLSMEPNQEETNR
# experimental.details: TRPC6 calcium flux assay (FLIPR, OAG-stimulated calcium influx)
# test.settings: HEK293 cells stably transfected with human TRPC6, read-out: hTRPC6 Potency
Label key: Fulfilled means IC50 under 30 nM; Not fulfilled means IC50 of 30 nM or more.

Past entries and their recorded results:
C[C@H](c1ccc(F)cc1F)n1c(N2CC[C@@H](F)[C@H](N)C2)nc2cc(F)c(F)cc21 :: Not fulfilled
N[C@@H]1CN(c2nc3cc(F)c(F)cc3n2Cc2ccc(F)c(F)c2)CC[C@H]1F :: Fulfilled
N[C@@H]1CN(c2nc3cc(F)c(F)cc3n2Cc2ccc(Cl)c(F)c2)CC[C@H]1F :: Not fulfilled

Does the reported IC50 of the following molecule sit strictly below 30 nM? COCCN(C(=O)Cn1c(N2CC[C@@H](F)[C@H](N)C2)nc2cc(F)c(F)cc21)C1CCS(=O)(=O)C1 (stereo partly drawn)
Not fulfilled

Just wondering, is IC50 of `N#Cc1cnc(Cn2c(N3CC[C@@H](F)[C@H](N)C3)nc3c(F)cc(F)cc32)cn1` below 30 nM?
Fulfilled

----------
Below: a set of entries, each annotated with reported pIC50.
# target.desc: human TRPC6 (Homo sapiens)
# experimental.details: TRPC6 calcium flux assay (FLIPR, OAG-stimulated calcium influx)
# test.settings: HEK293 cells stably transfected with human TRPC6, read-out: hTRPC6 Potency
Counter-ions that a name gives are not always drawn.
When answering, recall that pIC50 equals minus log10 of the concentration in mol/L, and write that number alone.

Solved entries (count: 2):
N#Cc1ccc(Cn2c(N3CCC(F)(F)[C@H](N)C3)nc3cc(C#N)ccc32)cc1 [Example 161] :: 6.88
CN(CC(F)(F)F)C(=O)Cn1c(N2CC[C@@H](F)[C@H](N)C2)nc2cc(Cl)ccc21 [Example 570] :: 7.07

Quick one: pIC50 for N#Cc1ccc(Cn2c(N3CC[C@@H](F)[C@H](N)C3)nc3c(C#N)cc(F)cc32)nc1 [Example 18] ?
8.11

For the compound N[C@@H]1CN(c2nc3ccccc3n2Cc2ccc(Cl)cn2)CC[C@H]1F [Example 211, hydrochloride] , what pIC50 is on record?
8.96

For the compound shown here, N#Cc1cc(F)cc2c1nc(N1CC[C@@H](F)[C@H](N)C1)n2Cc1ncc(Cl)cn1 [Example 31] , give the reported pIC50.
9.32

Look at this compound and give its reported pIC50. N#Cc1ccccc1Cn1c(N2CCC[C@@H](N)C2)nc2ccccc21 [Example 372]
4.85
